B1: GAGE1 (parent)
chain: QPPEMIGPMRPEQFSDEVEPATPE

Variants of: B1
ASSAY NAME: protein stability index of a GFP-peptide fusion (GPS, HEK-293T) (PSI 1-6); higher = more stable;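 further: lentivirally expressed fusions sorted by FACS into six bins by GFP to DsRed ratio, PSI derived from sequencing read proportions per bin multiplied by bin number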
CONDITIONS USED: c terminus: a fixed tail appended

VARIANT ID	protein stability index
D16S	5.31
T22W	4.35
P8A	5.5
S15P	4.67
E4A	5.75
P11Y	5.43
P3S	5.26
T22Q	5.2
E24H	4.62
D16F	5.74
P2E	4.88
E17T	5.08
D16M	5.32
F14D	5.8
P3G	5.17
G7K	5.54
M5C	4.73
E17F	4.86
S15E	5.49
E17H	5.56
P23D	5.28
A21R	5
Q13G	5.78
Q1E	5.01
R10G	4.82
P11I	4.87
M9W	5.9
E12H	5.21
T22Y	4.84
P3N	5.4
E12K	5.15
Q13S	5.46
V18T	4.79
V18K	5.12
E17Q	5.42
V18N	5.32
P20M	4.65
E24G	4.67
S15Y	4.59
E4G	5.72
G7T	5.46
E4H	5.6
P2D	4.87
F14I	5.28
P11V	5.7
I6R	5.86
P11F	5.5
P20S	5.18
R10K	4.93
Q13F	5.02
P20F	4.98
Q1L	5.07
M9S	5.72
A21G	4.98
E19T	5.17
P8S	5.54
E19L	4.04
Q13V	5.62
P8N	5.91
E17I	4.89
E17M	5.16
Q13A	5.12
S15V	4.73
P3E	5.63
Q13C	5.59
F14L	5.61
F14S	5.97
E24M	4.37
P20L	5.27
I6C	5.91
Q13Y	5.5
E4Y	5.75
P8F	4.9
P2L	4.88
P11W	5.39
F14A	5.4
Q13M	4.96
P20T	4.91
P2Y	4.8
R10T	4.38
Q1F	4.95
P20Q	5.21
E19F	4.95
P23C	4.57
P20E	4.92
D16H	5.57
P11R	5.55
S15L	4.79
I6Q	5.32
T22M	4.79
A21Q	4.79
